- Tested on: Fibroblast
- ASSAY_PROTOCOL: Multiplex assay against human fibroblast
- Format: toxicity, cell-based
- CONDITIONS: 48 h, 1 µM, compound concentration 1 uM, replicate 2
PARAMETER_MEASURED: Population Membrane Permeable-Phenotype (%)
Use % as the unit, but write only the number.

Would you please look over these solved cases?
COMPOUND	RESULT_UNITS	RECORDED_RESULT
CNc1oc(-c2cccc3ccccc23)nc1C#N	%	31
CCn1c(-c2nonc2N)nc2cnc(Oc3cccc(NC(=O)c4ccc(OCCN5CCOCC5)cc4)c3)cc21 [GSK-269962A]	%	3
CC(=O)c1cc(-c2cc(C(=O)NC3CC3)ccc2C)c2ncccn12	%	12
Cl.Cl.Nc1ncnc2c1c(-c1cccc(OCc3ccccc3)c1)cn2[C@H]1C[C@@H](CN2CCC2)C1	%	9
COc1cc2c(NC3CCN(C(C)C)CC3)nc(N3CCC(F)(F)CC3)nc2cc1OCCCN1CCCC1	%	6

Query: Return value of Population Membrane Permeable-Phenotype (%) for input CCCn1c(=O)c2[nH]c(C34CC5CC(CC3C5)C4)nc2n(CCC)c1=O [ROLOFYLLINE] , no commentary.
Result: 34

Query: Return value of Population Membrane Permeable-Phenotype (%) for input CCC(=O)O[C@]1(C(=O)SCF)[C@H](C)C[C@H]2[C@@H]3C[C@H](F)C4=CC(=O)C=C[C@]4(C)[C@@]3(F)[C@@H](O)C[C@@]21C [FLUTICASONE PROPIONATE] , no commentary.
Result: 5

Query: Return value of Population Membrane Permeable-Phenotype (%) for input Nc1nc2c(c(N3CCNCC3)n1)CCC1=C2[C@@H]2CCCC[C@@H]2O1 , no commentary.
Result: 13

Query: Return value of Population Membrane Permeable-Phenotype (%) for input Cc1nc(Cc2cccc(C(F)(F)F)c2)sc1-c1ccc(C(N)=O)nc1 [TP-024n] , no commentary.
Result: 12

Query: Return value of Population Membrane Permeable-Phenotype (%) for input COc1ccc(NS(=O)(=O)c2sc3ccc(Cl)cc3c2C)cc1N1CCNCC1.Cl , no commentary.
Result: 9

Query: Return value of Population Membrane Permeable-Phenotype (%) for input O=C(O)c1ccc2cc(-c3ccc(O)c(C45CC6CC(CC(C6)C4)C5)c3)ccc2c1 [O-DEMETHYLATED ADAPALENE] , no commentary.
Result: 11

Query: Return value of Population Membrane Permeable-Phenotype (%) for input CC(C)N1CCC(C)(C)c2cc(C#Cc3ccc(C(=O)O)cc3)ccc21 , no commentary.
Result: 14

Query: Return value of Population Membrane Permeable-Phenotype (%) for input CCc1cc2c(cc1CC)CC(NC[C@H](O)c1ccc(O)c3[nH]c(=O)ccc13)C2 [INDACATEROL] , no commentary.
Result: 7

Query: Return value of Population Membrane Permeable-Phenotype (%) for input Cc1cc2c(cc1N1C(=O)c3cccc4c(CCCO)ccc(c34)C1=O)n(C)c(=O)n2C , no commentary.
Result: 21
